Each recorded value in this set is attributed to PubChem BioAssay (NCI).

Give measured growth for each item. Keep answers brief.
tested on: MDA-MB-435 melanoma; test: NCI-60 one-dose screen, 48 h (100 = growth as untreated, 0 = no growth, -100 = all killed); conditions: 10 µM unless noted
This is part of a sample that, as a whole, favours compounds with a hit. Of some 83,000 tested, about 20% had one in any assay.
Give bare numbers, in %.

Worked examples follow.
compound | experimental-system | growth, %
CCC(=O)OC1=C(C)SC2=NC(c3ccc(Cl)c(Cl)c3)=CC(c3cc(OC)c(OC)c(OC)c3)N21 (centres undefined) | MDA-MB-435 melanoma | 103
O=S(=O)(NCCNc1cc(-c2c(-c3cccc(O)c3)nc3sccn23)ccn1)c1ccc(Br)cc1 | MDA-MB-435 melanoma | 26.1
C=CCN1C(=O)[C@]2(SC1=S)[C@H](c1cccc(Cl)c1)CN(C)[C@]21C(=O)NC2C=CC(Cl)=C[C@H]21 (some centres undefined) | MDA-MB-435 melanoma | 55.1
CC(=O)C(C(C)=O)c1nc2sc3cc(Cl)ccc3n2c(=N)c1C#N | MDA-MB-435 melanoma | 111
COc1cc(/C=C2\C=C(c3ccccc3)N(CCc3ccccc3)C2=O)cc(OC)c1OC | MDA-MB-435 melanoma | 89.5

Please state growth for every compound in the list that follows.
1. Clc1ccc(-c2nc(NCCc3ccccc3)nc3c(NCCc4ccccc4)cnn23)cc1
2. CN(C)c1ccc(-c2cc(-c3ccc(Nc4nc(Nc5ccccc5)nc(Nc5ccc(Cl)cc5)n4)cc3)nc(N)n2)cc1
3. CC(C)OC(=O)NNC(=O)c1ccncc1
4. CC/C=C/[C@@H]1C=C[C@@H]2CCC[C@H]2[C@@H]1CC[C@H](O)[C@H](C)N

stdout:
[42.6, 49.2, 109, -89.3]
